Ref: patent US4335249A

Tested on: tomato (Lycopersicon esculentum)
Assay: Postemergence herbicidal activity, tomato
Assay type: in vivo
Conditions: Solanum lycopersicum, post-emergence, 336 h, Post, 2 lb/A
Experimental: Using the procedure described below, compounds of the invention are evaluated for control of several of the following plant species: The following est procedure is employed. Seeds of selected crops and weeds are planted in soil in flats. […] The compound to be evaluated is dissolved in acetone, diluted with water, and sprayed over the flats using a carrier volume equivalent to 50 gallons per acre at the rate of application (pounds per acre, lb/A.) specified in the tables. […]
Recorded pest or weed control at 2241.7 g/ha, one value per entry.
Test Readout: pest or weed control at 2241.7 g/ha (%)

INSERT INTO assay_data (compound, observed) VALUES
  ('CCOC(=O)COc1ccc(Oc2ccc(C(F)(F)F)cc2Cl)cc1', 0),
  ('CCC(C)OC(=O)C(C)Oc1ccc(Oc2ccc(C(F)(F)F)cc2Cl)cc1 (centres unmarked)', 0),
  ('COC(=O)C(C)Oc1ccc(Oc2ccc(C(F)(F)F)cc2Cl)cc1 (centres unmarked)', 60),
  ('CCCOC(=O)C(C)Oc1ccc(Oc2ccc(C(F)(F)F)cc2Cl)cc1 (centres unmarked)', 30),
  ('CCOC(=O)C(C)Oc1ccc(Oc2ccc(C(F)(F)F)cc2Cl)cc1[N+](=O)[O-] (centres unmarked)', 90);

---

Entries and their pest or weed control at 2241.7 g/ha values follow.
Test system: downybrome (Bromus tectorum)
Assay: Postemergence herbicidal activity, downybrome
Assay type: in vivo
Details: Bromus tectorum, post-emergence, 336 h, Post, 2 lb/A
Test Readout: pest or weed control at 2241.7 g/ha (%)

INSERT INTO assay_data (compound, test_readout, observed) VALUES
  ('CC(Oc1ccc(Oc2ccc(C(F)(F)F)cc2Cl)cc1)C(=O)OC(C)(C)C (stereo not drawn)', 'pest or weed control at 2241.7 g/ha', 0),
  ('CC(C)COC(=O)C(C)Oc1ccc(Oc2ccc(C(F)(F)F)cc2Cl)cc1 (stereo not drawn)', 'pest or weed control at 2241.7 g/ha', 100),
  ('CCOC(=O)C=CCOc1ccc(Oc2ccc(C(F)(F)F)cc2Cl)cc1', 'pest or weed control at 2241.7 g/ha', 0),
  ('CCOC(=O)C(C)Oc1ccc(Oc2ccc(C(F)(F)F)cc2Cl)cc1[N+](=O)[O-] (stereo not drawn)', 'pest or weed control at 2241.7 g/ha', 0),
  ('CCOC(=O)C(CC)Oc1ccc(Oc2ccc(C(F)(F)F)cc2Cl)cc1 (stereo not drawn)', 'pest or weed control at 2241.7 g/ha', 30),
  ('CC(Oc1ccc(Oc2ccc(C(F)(F)F)cc2Cl)cc1)C(N)=O (stereo not drawn)', 'pest or weed control at 2241.7 g/ha', 40),
  ('CCOC(=O)C(C)Oc1cccc(Oc2ccc(C(F)(F)F)cc2Cl)c1 (stereo not drawn)', 'pest or weed control at 2241.7 g/ha', 40),
  ('CCOC(=O)C(C)Oc1ccc(Oc2ccc(C(F)(F)F)cc2C#N)cc1 (stereo not drawn)', 'pest or weed control at 2241.7 g/ha', 90),
  ('C=CCOC(=O)C(C)Oc1ccc(Oc2ccc(C(F)(F)F)cc2Cl)cc1 (stereo not drawn)', 'pest or weed control at 2241.7 g/ha', 100);

---

The following molecules are listed with their measured pest or weed control at 4483.4 g/ha values.
Test system: barnyardgrass (Echinochloa crusgalli)
Assay: Preemergence herbicidal activity, barnyardgrass
Format: in vivo
Conditions: Echinochloa crus-galli, pre-emergence, 336 h; Pre, 4 lb/A
Test Readout: pest or weed control at 4483.4 g/ha

INSERT INTO measurements (molecule, observed) VALUES
  ('CCOC(=O)C(C)Oc1ccc([S+]([O-])c2ccccc2C(F)(F)F)cc1 (stereo not shown)', '0%'),
  ('CCOC(=O)C(C)Oc1ccc([S+]([O-])c2ccc(C(F)(F)F)cc2)cc1 (stereo not shown)', '0%'),
  ('CCOC(=O)C(C)Oc1ccc([S+]([O-])c2ccc(C(F)(F)F)cc2Cl)cc1 (stereo not shown)', '95%'),
  ('CCOC(=O)C(C)Oc1ccc([S+]([O-])c2cccc(C(F)(F)F)c2)cc1 (stereo not shown)', '0%');

---

System: downybrome (Bromus tectorum)
Assay: Postemergence herbicidal activity, downybrome
Format: in vivo
Settings: Bromus tectorum, post-emergence, 336 h, Post, 2 lb/A
Attribute: pest or weed control at 2241.7 g/ha
Test Readout: pest or weed control at 2241.7 g/ha (%)

INSERT INTO measurements (molecule, experimental_system, test_readout, units_text, observed) VALUES
  ('COC(=O)C(C)Oc1ccc(Oc2ccc(C(F)(F)F)cc2Cl)cc1 (stereo not shown)', 'downybrome (Bromus tectorum)', 'pest or weed control at 2241.7 g/ha', '%', 99),
  ('CCOC(=O)C(C)Oc1ccc(Sc2ccc(C(F)(F)F)cc2[N+](=O)[O-])cc1 (stereo not shown)', 'downybrome (Bromus tectorum)', 'pest or weed control at 2241.7 g/ha', '%', 0),
  ('CCCCCCOC(=O)C(C)Oc1ccc(Oc2ccc(C(F)(F)F)cc2Cl)cc1 (stereo not shown)', 'downybrome (Bromus tectorum)', 'pest or weed control at 2241.7 g/ha', '%', 60),
  ('CCOC(=O)C(C)Oc1ccc(Sc2ccc(C(F)(F)F)cc2Cl)cc1 (stereo not shown)', 'downybrome (Bromus tectorum)', 'pest or weed control at 2241.7 g/ha', '%', 90),
  ('CCOC(=O)C(C)Oc1ccc(Oc2ccc(C(F)(F)F)cc2Cl)cc1Cl (stereo not shown)', 'downybrome (Bromus tectorum)', 'pest or weed control at 2241.7 g/ha', '%', 0),
  ('CCC(C)OC(=O)C(C)Oc1ccc(Oc2ccc(C(F)(F)F)cc2Cl)cc1 (stereo not shown)', 'downybrome (Bromus tectorum)', 'pest or weed control at 2241.7 g/ha', '%', 99),
  ('CCCCCCCCOC(=O)C(C)Oc1ccc(Oc2ccc(C(F)(F)F)cc2Cl)cc1 (stereo not shown)', 'downybrome (Bromus tectorum)', 'pest or weed control at 2241.7 g/ha', '%', 50);

---

Tested on: barnyardgrass (Echinochloa crusgalli)
Assay: Preemergence herbicidal activity, barnyardgrass
Format: in vivo
Conditions: Echinochloa crus-galli, pre-emergence, 336 h; Pre, 2 lb/A
Test Readout: pest or weed control at 2241.7 g/ha (%)

INSERT INTO assay_data (compound, test_readout, observed) VALUES
  ('CCOC(=O)COc1ccc(Oc2ccc(C(F)(F)F)cc2Cl)cc1 [Example 11]', 'pest or weed control at 2241.7 g/ha', 0),
  ('CCOC(=O)C(C)Oc1ccc(Oc2ccc(C(F)(F)F)cc2C#N)cc1 (stereo not shown) [Example 37]', 'pest or weed control at 2241.7 g/ha', 100),
  ('CCOC(=O)C(C)Oc1ccc(Oc2ccc(C(F)(F)F)cc2Cl)cc1Cl (stereo not shown) [Example 7]', 'pest or weed control at 2241.7 g/ha', 0),
  ('CC(C)OC(=O)C(C)Oc1ccc(Oc2ccc(C(F)(F)F)cc2Cl)cc1 (stereo not shown) [Example 22]', 'pest or weed control at 2241.7 g/ha', 100),
  ('CC(Oc1ccc(Oc2ccc(C(F)(F)F)cc2)cc1)C(=O)O (stereo not shown) [Example 29]', 'pest or weed control at 2241.7 g/ha', 100),
  ('CCOC(=O)C=CCOc1ccc(Oc2ccc(C(F)(F)F)cc2Cl)cc1 [Example 30]', 'pest or weed control at 2241.7 g/ha', 60),
  ('CC(Oc1ccc(Oc2ccc(C(F)(F)F)cc2Cl)cc1)C(=O)OC(C)(C)C (stereo not shown) [Example 35]', 'pest or weed control at 2241.7 g/ha', 99),
  ('CCOC(=O)C(C)Oc1ccc(Oc2ccc(C(F)(F)F)cc2Cl)cc1[N+](=O)[O-] (stereo not shown) [Example 9]', 'pest or weed control at 2241.7 g/ha', 0),
  ('CCOC(=O)C(CC)Oc1ccc(Oc2ccc(C(F)(F)F)cc2Cl)cc1 (stereo not shown) [Example 20]', 'pest or weed control at 2241.7 g/ha', 99),
  ('CCNC(=O)C(C)Oc1ccc(Oc2ccc(C(F)(F)F)cc2Cl)cc1 (stereo not shown) [Example 21]', 'pest or weed control at 2241.7 g/ha', 100),
  ('CCOC(=O)CCC(C)Oc1ccc(Oc2ccc(C(F)(F)F)cc2Cl)cc1 (stereo not shown) [Example 38]', 'pest or weed control at 2241.7 g/ha', 90),
  ('CC(Oc1ccc(Oc2ccc(C(F)(F)F)cc2Cl)cc1)C(=O)OCCN(C)C (stereo not shown) [Example 31]', 'pest or weed control at 2241.7 g/ha', 100),
  ('COC(=O)C(C)Oc1ccc(Oc2ccc(C(F)(F)F)cc2Cl)cc1 (stereo not shown) [Example 4]', 'pest or weed control at 2241.7 g/ha', 100),
  ('CCOC(=O)C(C)Oc1ccc(Oc2ccc(C(F)(F)F)cc2)cc1 (stereo not shown) [Example 27]', 'pest or weed control at 2241.7 g/ha', 100),
  ('CC(C)COC(=O)C(C)Oc1ccc(Oc2ccc(C(F)(F)F)cc2Cl)cc1 (stereo not shown) [Example 33]', 'pest or weed control at 2241.7 g/ha', 99),
  ('CCOC(=O)CCC(C)Oc1ccc(Oc2ccc(C(F)(F)F)cc2)cc1 (stereo not shown) [Example 39]', 'pest or weed control at 2241.7 g/ha', 99),
  ('COCCOC(=O)C(C)Oc1ccc(Oc2ccc(C(F)(F)F)cc2Cl)cc1 (stereo not shown) [Example 25]', 'pest or weed control at 2241.7 g/ha', 100),
  ('CCOC(=O)C(C)Oc1ccc(Oc2ccc(C(F)(F)F)cc2Cl)cc1C (stereo not shown) [Example 10]', 'pest or weed control at 2241.7 g/ha', 0),
  ('CCCCOC(=O)C(C)Oc1ccc(Oc2ccc(C(F)(F)F)cc2Cl)cc1 (stereo not shown) [Example 23]', 'pest or weed control at 2241.7 g/ha', 100),
  ('CCCCCCCCOC(=O)C(C)Oc1ccc(Oc2ccc(C(F)(F)F)cc2Cl)cc1 (stereo not shown) [Example 26]', 'pest or weed control at 2241.7 g/ha', 50),
  ('CCOC(=O)C(C)Oc1ccc(Oc2ccc(C(F)(F)F)cc2Cl)cc1OC (stereo not shown) [Example 8]', 'pest or weed control at 2241.7 g/ha', 0),
  ('CC(C#N)Oc1ccc(Oc2ccc(C(F)(F)F)cc2Cl)cc1 (stereo not shown) [Example 19]', 'pest or weed control at 2241.7 g/ha', 100);
